Source: ChEMBL document CHEMBL3507680

compounds and their reported cytotoxicity at 70.5 h
# ASSAY_TEXT: Human HepG2 cell viability assay in 384 well format
# Assay type: toxicity, cell-based
# Set-up: dose 125 nL, time 70.5 hour; concentration not given beside the values
# MEASUREMENT_CONDITIONS: HepG2 cells, read-out: Inhibition
MEASUREMENT_NAME: cytotoxicity at 70.5 h (%)

1) Cc1ccnc(N2CCCC(c3nncn3C3CC3)C2)n1 (centres undefined) ... -2.88
2) CN(Cc1cc(Br)cn1C)C(=O)Cc1cccc(O)c1 ... -3.37
3) CC(C)N(Cc1ccc(C(F)(F)F)nc1)Cc1cnn(C)c1 ... -6.85
4) CC(=O)NC1CCN(c2ccc(C#N)cc2C(F)(F)F)CC1 ... -1.95
5) COc1c(C)cnc(CN2CCCC2Cn2nc(C)nc2C)c1C (centres undefined) ... -3.93
6) COc1cc(OC)c2nc(NCCN3CCNC3=O)cc(C)c2c1 ... 2.59
7) O=C1NCC(C(=O)N(Cc2cccc(Br)c2)C2CC2)N1 (centres undefined) ... 26.3
8) CN(Cc1ccco1)[C@@H]1CN(Cc2ccc(F)cc2)C[C@@H]2CCCO[C@@H]21 ... 2.25
9) N#CCC(=O)NCc1nnc2n1CCN(Cc1cccs1)C2 ... -6.57
10) Cc1cccc(-c2noc([C@@H]3Cc4nc[nH]c4CN3)n2)c1 ... -3
11) Cc1cnn(CC2CCCN2C(=O)Cc2c(C)nc(C)[nH]c2=O)c1 (centres undefined) ... 15.2
12) Cc1ncsc1C(=O)Nc1ccccn1 ... -6.03
13) CCn1cnnc1CNC(=O)C1COc2ccc(Cl)cc2C1 (centres undefined) ... -3.41
14) CC(=O)Nc1ccc(-c2ccccc2NC(=O)CN)cc1 ... 28.6
15) CC(C)C(=O)N1CCN(Cc2ccccn2)CC2(CC(=O)N(C)C2)C1 (centres undefined) ... -9.37
16) COc1ccc(-n2nc(C)c(C(C)=O)c2C)cc1C(N)=O ... 2.1
17) COc1cccc2c1OCC(C(=O)NCCc1nnc(C)s1)C2 (centres undefined) ... 8.68
18) CCc1nnc(Nc2cc(C)nc(C3CN(C(=O)C(C)C)CCO3)c2)s1 (centres undefined) ... 9.87
19) CSc1ncc(CNC(C)c2cnn(-c3ccccc3)c2C)cn1 (centres undefined) ... -2.21
20) CN(C)CCN1C[C@@H]2CN(S(=O)(=O)c3cccs3)C[C@@H]2C1=O ... -10.9
21) CCn1cc2c(n1)CN(Cc1ccc(F)cc1)CC2COCC1CC1 (centres undefined) ... -1.9
22) O=C(c1cnc(C2CC2)nc1)N1CCCC(c2nccs2)C1 (centres undefined) ... 27.6
23) Cc1cc(C(=O)NCc2ccnc(N3CCN(C)CC3)c2)no1 ... -0.337
24) c1coc(CN2CCn3c(COCC4CC4)nnc3C2)c1 ... 0.787

----------
# ASSAY_TEXT: Human HepG2 cell viability assay in 384 well format
# Type: toxicity, cell-based
# Design: dose 125 nL, time 70.5 hour; concentration not given beside the values
# MEASUREMENT_CONDITIONS: HepG2 cells, read-out: Inhibition
compounds and their reported cytotoxicity at 70.5 h
MEASUREMENT_NAME: cytotoxicity at 70.5 h (%)

1. CCOC(C)c1noc(CN2CCN(Cc3cccnc3)CC2)n1 (centres undefined) ... 34.3
2. COc1c(C(=O)N2CCNC(=O)C2)cnc2c1c(C)nn2C ... 21
3. Cc1nc(C2CCCN2CCc2ccccn2)no1 (centres undefined) ... -5.46
4. Cn1c(C(=O)NCC2(N)CCCC2)cc2ccccc21 ... 3.39
5. CCN(CC)C(=O)c1cc(C2(C)CCN(C(C)=O)CC2)nc(C)n1 ... 4.01
6. CC(C)(N)C(=O)N1CCC(c2nccnc2Oc2ccccc2F)CC1 ... 7.72
7. CCN1CCN(c2ncc(-c3cc(C)no3)c(-c3ccco3)n2)CC1 ... -3.95
8. COc1cc(C)c2c(c1C)C[C@@H](C(C)C(=O)O)CC2 (some centres undefined) ... -3.12
9. Cc1nc(CC(=O)N2CCC(c3nn(C)c4ncccc34)CC2)cs1 ... -9.42
10. O[C@H]1[C@H](NCCSc2ccccn2)c2ccccc2C12CCNCC2 ... 1.07
11. CCS(=O)(=O)c1ccccc1N1CCC(NC(=O)C(C)C)CC1 ... 5.03
12. CN(c1ccc(CNc2ccc(Cl)cn2)cc1)S(C)(=O)=O ... -4.71
13. COCc1ccccc1C(=O)N1CCCC(c2cc(C)[nH]n2)C1 (centres undefined) ... 26.2
14. COCc1cc(NCCc2ccc(OC)cc2)n2nccc2n1 ... -24.5
15. O=C(CCc1cccs1)N1CCCCC1Cn1cccn1 (centres undefined) ... -5.08
16. O=C(NC1CCC1)[C@@H]1C[C@@H]2CCN(Cc3cccs3)C[C@@H]2O1 ... 7.52
17. NC(=O)c1cnc(NC2CC2)nc1CCNC(=O)CC1CCCC1 ... -14.3
18. CCO[C@H]1COC[C@@H]1NC(=O)CCc1nc(-c2ccccc2)no1 ... -8.01
19. COc1ccc(CN2CCCC(Cn3nc(C)nc3C)C2)cc1F (centres undefined) ... -8.47
20. CCCc1nnc(NCCn2nc(C)c(Cl)c2C)o1 ... -7.4
21. O=C(O)c1cc(/C=C/c2ccccc2)ncn1 ... -5.54
22. Cn1cccc1C(=O)N1C[C@@H]2COC[C@]2(CNS(C)(=O)=O)C1 ... -1.05
23. Cc1nnc2n1CCN(Cc1ccc3c(c1)OCCO3)C2 ... -2.45
24. Cc1ccc(N[C@@H]2CN(Cc3cc(C)on3)C[C@@H]3CCCO[C@@H]32)nn1 ... 2.24
